The origin of these recorded values is patent EP1247803A2.

Let's look at some compounds and their measured Fik Kinase %Inhibition.
molecular target: FLK-1 receptor (Mus musculus, UniProt P35918); construct: expressed in transfected cells; host or cells: NIH3T3 C7#3; assay: FLK-1 ELISA (kinase activity of the FLK-1 receptor in FLK-1/NIH3T3 cells, VEGF stimulated); type: cell-based
Sequence (P35918 20-1345): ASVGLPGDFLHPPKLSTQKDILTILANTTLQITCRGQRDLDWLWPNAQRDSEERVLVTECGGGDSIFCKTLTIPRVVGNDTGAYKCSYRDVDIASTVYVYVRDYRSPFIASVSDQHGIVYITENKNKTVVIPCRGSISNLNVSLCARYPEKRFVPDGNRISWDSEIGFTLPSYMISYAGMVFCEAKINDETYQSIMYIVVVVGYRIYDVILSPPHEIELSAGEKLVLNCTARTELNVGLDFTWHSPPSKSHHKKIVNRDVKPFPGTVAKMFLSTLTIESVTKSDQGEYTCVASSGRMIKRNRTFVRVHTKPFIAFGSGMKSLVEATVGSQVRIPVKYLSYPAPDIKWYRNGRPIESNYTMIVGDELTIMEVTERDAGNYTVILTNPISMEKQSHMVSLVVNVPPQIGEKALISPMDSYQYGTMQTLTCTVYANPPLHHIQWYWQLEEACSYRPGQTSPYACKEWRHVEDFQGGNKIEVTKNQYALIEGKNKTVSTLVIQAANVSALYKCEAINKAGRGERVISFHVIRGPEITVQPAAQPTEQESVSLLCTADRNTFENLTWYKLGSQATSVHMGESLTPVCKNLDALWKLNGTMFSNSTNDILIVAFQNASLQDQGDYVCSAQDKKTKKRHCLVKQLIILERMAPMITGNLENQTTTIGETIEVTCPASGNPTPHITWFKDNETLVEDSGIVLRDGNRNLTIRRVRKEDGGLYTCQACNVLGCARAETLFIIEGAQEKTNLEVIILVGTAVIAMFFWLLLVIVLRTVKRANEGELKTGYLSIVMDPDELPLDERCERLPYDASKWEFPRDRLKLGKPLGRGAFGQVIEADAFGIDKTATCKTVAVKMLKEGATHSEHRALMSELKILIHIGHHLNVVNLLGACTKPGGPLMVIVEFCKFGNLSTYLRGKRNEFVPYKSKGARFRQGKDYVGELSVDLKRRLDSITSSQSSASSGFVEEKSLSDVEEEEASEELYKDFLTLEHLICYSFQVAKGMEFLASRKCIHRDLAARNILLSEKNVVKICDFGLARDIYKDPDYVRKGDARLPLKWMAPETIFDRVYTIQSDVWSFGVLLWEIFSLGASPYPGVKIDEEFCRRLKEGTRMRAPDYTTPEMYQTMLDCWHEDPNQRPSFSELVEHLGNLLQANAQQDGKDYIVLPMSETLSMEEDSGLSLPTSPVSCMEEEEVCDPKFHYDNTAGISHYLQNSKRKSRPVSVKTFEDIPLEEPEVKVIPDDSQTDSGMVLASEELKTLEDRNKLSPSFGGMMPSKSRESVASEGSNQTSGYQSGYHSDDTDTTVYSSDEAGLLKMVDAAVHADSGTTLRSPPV
Quantity Measured: Fik Kinase %Inhibition (%)

[[record]]
compound = "O=CN1CCN(c2ccc(C=C3C(=O)Nc4ccc(S(=O)(=O)Nc5ccc(C(F)(F)F)cc5)cc43)cc2)CC1 [10725/E07]"
observed = 9.7

[[record]]
compound = "COc1cc(C)cc(O)c1C=C1C(=O)Nc2ccc(I)cc21 [10725/B06]"
observed = -0.5

[[record]]
compound = "CNS(=O)(=O)c1ccc2c(c1)C(=Cc1ncc[nH]1)C(=O)N2 [10720/D11]"
observed = 9.8

[[record]]
compound = "Cc1c(Br)ccc2c1C(=Cc1sccc1Br)C(=O)N2 [10725/C02]"
observed = 7.0

[[record]]
compound = "Cn1cccc1C=C1C(=O)Nc2c(Br)cc(Br)cc21 [10717/A04]"
observed = -4.5

[[record]]
compound = "COc1cc(O)ccc1C=C1C(=O)Nc2ccc(S(=O)(=O)N3CCOCC3)cc21 [10720/F03]"
observed = 10.6

[[record]]
compound = "COc1ccc(C=C2C(=O)Nc3c(Br)cc(Br)cc32)c(OC)c1OC [10730/A02]"
observed = -3.7

[[record]]
compound = "COc1ccc(C=C2C(=O)Nc3ccc(S(=O)(=O)N4CCOCC4)cc32)cc1 [10726/F11]"
observed = 13.6

[[record]]
compound = "O=C1Nc2c(Br)cc(Br)cc2C1=Cc1ccc[nH]1 [10717/A09]"
observed = -3.9

[[record]]
compound = "O=C1Nc2c(Br)cc(Br)cc2C1=Cc1ccc(N2CCCC2)cc1 [10729/A10]"
observed = 0.7

[[record]]
compound = "CCOc1cc(C=C2C(=O)Nc3ccc(S(=O)(=O)N4CCOCC4)cc32)ccc1O [10720/F09]"
observed = 5.9

[[record]]
compound = "CNS(=O)(=O)c1ccc2c(c1)C(=Cc1cc3c4c(c1O)CCCN4CCC3)C(=O)N2 [10724/D05]"
observed = -1.6

[[record]]
compound = "Cc1ccc2occ(C=C3C(=O)Nc4ccc(S(=O)(=O)Nc5ccc(C(F)(F)F)cc5)cc43)c(=O)c2c1 [10731/E06]"
observed = 2.6

[[record]]
compound = "O=C1Nc2ccc(CCCl)cc2C1=Cc1cc([N+](=O)[O-])ccc1O [10733/G10]"
observed = 12.7

[[record]]
compound = "COC(=O)c1[nH]c(C)c(C=C2C(=O)Nc3ccc(S(=O)(=O)Nc4ccc(C(F)(F)F)cc4)cc32)c1C(=O)OC [10718/E07]"
observed = 15.6

[[record]]
compound = "Cc1[nH]c(C=C2C(=O)Nc3ccc(CCCl)cc32)c(Br)c1Br [10717/G11]"
observed = 16.4

[[record]]
compound = "Cc1c(Br)ccc2c1C(=Cc1ccncc1)C(=O)N2 [10729/C09]"
observed = -26.4

[[record]]
compound = "CCn1c2ccccc2c2cc(C=C3C(=O)Nc4ccc(CCCl)cc43)ccc21 [10731/G02]"
observed = 16.8

[[record]]
compound = "Cc1cn(C)cc1C=C1C(=O)Nc2ccc(S(=O)(=O)N3CCOCC3)cc21 [10726/F06]"
observed = 17.7

[[record]]
compound = "COc1ccc2[nH]cc(C=C3C(=O)Nc4ccc(I)cc43)c2c1 [10731/B09]"
observed = -0.5

[[record]]
compound = "Cc1ccc(C=C2C(=O)Nc3ccc(S(=O)(=O)N4CCOCC4)cc32)s1 [10717/F07]"
observed = 2.0

[[record]]
compound = "Cc1cc(C=C2C(=O)Nc3ccc(S(=O)(=O)Nc4ccc(C(F)(F)F)cc4)cc32)[nH]n1 [10725/E05]"
observed = -0.2

[[record]]
compound = "CC(C)(C)c1cc(C=C2C(=O)Nc3c(Br)cc(Br)cc32)cc(Br)c1O [10721/A10]"
observed = 5.2

[[record]]
compound = "Cc1csc2sc(C=C3C(=O)Nc4c(Br)cc(Br)cc43)c(C)c12 [10724/A11]"
observed = 12.8

[[record]]
compound = "Cc1c(Br)cc(Br)c2c1C(=Cc1c[nH]cn1)C(=O)N2 [10725/A11]"
observed = -21.9

[[record]]
compound = "COc1cc(N(C)C)ccc1C=C1C(=O)Nc2ccc(I)cc21 [10728/B05]"
observed = -12.3

[[record]]
compound = "O=C1Nc2ccc(CCCl)cc2C1=Cc1cccs1 [10717/G03]"
observed = 1.8

[[record]]
compound = "O=C1Nc2ccc(CCCl)cc2C1=Cc1c(O)cc(O)cc1O [10722/G03]"
observed = 5.3

[[record]]
compound = "CNS(=O)(=O)c1ccc2c(c1)C(=C1C(=O)Nc3ccc(F)cc31)C(=O)N2 [10726/D08]"
observed = 12.1

[[record]]
compound = "CC(=O)Oc1ccc(C=C2C(=O)Nc3ccc(S(=O)(=O)Nc4ccc(C(F)(F)F)cc4)cc32)cc1OC(C)=O [10723/E05]"
observed = 8.9

[[record]]
compound = "CC(C)c1cc(C=C2C(=O)Nc3ccc(CCCl)cc32)cc(C(C)C)c1O [10724/G06]"
observed = 0.1

[[record]]
compound = "CC(C)(C)c1cc(C=C2C(=O)Nc3ccc(S(=O)(=O)Nc4ccc(C(F)(F)F)cc4)cc32)cc(Br)c1O [10721/E10]"
observed = 9.3

[[record]]
compound = "O=C1Nc2ccc(I)cc2C1=Cc1ccc([N+](=O)[O-])o1 [10718/B11]"
observed = 4.5

[[record]]
compound = "O=C1Nc2ccc(CCCl)cc2C1=Cc1ccc([N+](=O)[O-])c(O)c1 [10724/G04]"
observed = -7.9

[[record]]
compound = "CCCCN(CCCC)c1ccc(C=C2C(=O)Nc3c(Br)cc(Br)cc32)cc1 [10722/A10]"
observed = 6.6

[[record]]
compound = "Cc1cc(C=C2C(=O)Nc3ccc(S(=O)(=O)N4CCOCC4)cc32)oc1C [10730/F11]"
observed = -1.3

